# System: 429239-143-T-J1-PDC complex spheroid viability;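 further: luminescence signal used as surrogate measure of viable cells; spheroids exposed to compounds for seven days before readout; 100% = DMSO vehicle control viability as luminescence relative to vehicle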
# TEST_DETAILS: Anticancer human tumor 429239-143-T-J1-PDC patient-derived small cell lung carcinoma cell line growth inhibition [POLQ]; active means viability on the fitted dose curve at most 10% of control; inactive means the rest
# PARTICULARS: second compound 0.316 µM; first compound 3.16 µM
Pick one: 1 (active), -1 (inactive)

Completed entries (count: 4):
Check the results log: what was the call for O=C(c1cc(Cc2n[nH]c(=O)c3ccccc23)ccc1F)N1CCN(C(=O)C2CC2)CC1 + COC1C(OC(N)=O)C(O)C(Oc2ccc3c(O)c(NC(=O)c4ccc(O)c(CC=C(C)C)c4)c(=O)oc3c2C)OC1(C)C ?
-1

# iterate: O=c1[nH]cc(F)c(=O)[nH]1 + Nc1ccc(C#CCN(C(=O)Cc2ncc(C(F)(F)F)cc2C(F)(F)F)c2ccc(F)cc2)nn1
-1

# iterate: CNCc1ccc(-c2[nH]c3cc(F)cc4c3c2CCNC4=O)cc1 + COC1C(OC(N)=O)C(O)C(Oc2ccc3c(O)c(NC(=O)c4ccc(O)c(CC=C(C)C)c4)c(=O)oc3c2C)OC1(C)C
-1

# iterate: Nc1ccn(C2OC(CO)C(O)C2(F)F)c(=O)n1 (stereo not given) + Cc1cccc(N(C)C(=O)C2C(O)CCN2c2nc(C)cc(C(F)(F)F)c2C#N)c1
-1

Kindly consider the entry below.
Check the results log: what was the call for COc1cc(C2c3cc4c(cc3C(OC3OC5COC(C)OC5C(O)C3O)C3COC(=O)C23)OCO4)cc(OC)c1O (stereo not given) + Nc1ccc(C#CCN(C(=O)Cc2ncc(C(F)(F)F)cc2C(F)(F)F)c2ccc(F)cc2)nn1 ?
1
